details: buffer; pH 7.4; 200.0 µM
property_measured: log10 of solubility kinetic (log10 of the value in µg/mL)
// stored as log10 of solubility kinetic expressed in µg/mL

Check out these entries, answers already filled in.
O=C(CSc1ncccn1)NC(=O)c1ccccc1: 1.52
O=C(NCCNC(=O)c1ccccc1F)c1ccco1.O=C(O)C(=O)O: 1.71
COc1ccccc1C(=O)NCCCNC(=O)c1cnccn1: 1.56
CCCCNC(=O)NCCN1CCOCC1: 1.50
O=C(NCc1csc(-c2cccs2)n1)Nc1cccc(Cl)c1: -0.52

Now consider a different molecule.
IN: // returns reported log10 of solubility kinetic for input "c1cc2c(cc1NC1CCCCCC1)OCO2"
OUT: 0.77
